From: ChEMBL document CHEMBL5120759

target or test system: COX-1 (Prostaglandin G/H synthase 1) (Ovis aries)
method description: Inhibition of ovine COX-1 at 17.5 uM using arachidonic acid as substrate by colorimetric analysis
Type: single protein
assay setup: sheep, ovine COX-1 enzyme, probe arachidonic acid
I'd appreciate it if you could supply inhibition at 17.5 µM values for the items below.
The response must be a number in % with no trailing unit.

Form field inhibition at 17.5 µM, entry C=C(C)[C@@H]1CC[C@]2(C)[C@H](CC=C3[C@@H]4[C@@H](C)[C@H](C)CC[C@]4(C)CC[C@]32C)[C@@]1(C)CCCNCC(=O)OC : 33.3

Measured inhibition at 17.5 µM of C[C@H]1[C@H](C)CC[C@]2(C(=O)O)CC[C@]3(C)C(=CC[C@@H]4[C@@]5(C)CC[C@H](O)C(C)(C)[C@@H]5CC[C@]43C)[C@H]12 : 23.6

get_value(item= C=C(C)[C@@H]1CC[C@]2(C)CC[C@]3(C)[C@H](CC[C@@H]4[C@@](C)(CCCN5C[C@H](O)C[C@H]5C(=O)OC)[C@H](C(=C)C)CC[C@]43C)[C@@H]12 , readout=inhibition at 17.5 µM) returns 7.2

----------
target or test system: COX-1 (Prostaglandin G/H synthase 1) (Ovis aries, UniProt P05979)
Sequence (P05979 whole entry): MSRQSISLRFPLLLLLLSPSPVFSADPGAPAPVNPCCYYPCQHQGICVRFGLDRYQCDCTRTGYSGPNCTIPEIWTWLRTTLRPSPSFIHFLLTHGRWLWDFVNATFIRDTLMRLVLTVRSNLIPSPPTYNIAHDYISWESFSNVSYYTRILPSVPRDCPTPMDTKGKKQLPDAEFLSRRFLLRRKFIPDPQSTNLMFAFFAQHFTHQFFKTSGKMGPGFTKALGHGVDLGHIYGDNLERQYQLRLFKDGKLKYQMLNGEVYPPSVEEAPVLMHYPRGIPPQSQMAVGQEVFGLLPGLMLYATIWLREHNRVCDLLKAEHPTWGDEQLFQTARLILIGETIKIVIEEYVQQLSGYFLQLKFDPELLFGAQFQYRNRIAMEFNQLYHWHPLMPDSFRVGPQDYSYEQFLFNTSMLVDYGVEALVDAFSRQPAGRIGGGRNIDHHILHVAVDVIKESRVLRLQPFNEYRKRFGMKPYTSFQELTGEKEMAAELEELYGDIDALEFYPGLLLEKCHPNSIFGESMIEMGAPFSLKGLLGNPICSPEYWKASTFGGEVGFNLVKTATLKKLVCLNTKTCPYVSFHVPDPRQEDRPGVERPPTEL
method description: Inhibition of ovine COX-1 at 17.5 uM using arachidonic acid as substrate by colorimetric analysis
Assay type: single protein
assay setup: sheep, ovine COX-1 enzyme, probe arachidonic acid
measurement kind: inhibition at 17.5 µM (%)
Value expressed in %; do not type the unit.

The molecule identified as C=C(C)[C@@H]1CC[C@]2(C)[C@H](CC=C3[C@@H]4[C@@H](C)[C@H](C)CC[C@]4(C)CC[C@]32C)[C@@]1(C)CCCN1CCOCC1 registered its inhibition at 17.5 µM at 12.2

// field: inhibition at 17.5 µM; key: C=C(C)[C@@H]1CC[C@]2(C)CC[C@]3(C)[C@H](CC[C@@H]4[C@@](C)(CCCO)[C@H](C(=C)C)CC[C@]43C)[C@@H]12 ; value = 14.8

Value of inhibition at 17.5 µM reported for the molecule C=C(C)[C@@H]1CC[C@]2(C)[C@H](CC=C3[C@@H]4[C@@H](C)[C@H](C)CC[C@]4(C)CC[C@]32C)[C@@]1(C)CCCN1C[C@H](O)C[C@H]1C(=O)OC is 37.3
